Test system: RXF 393
Test: NCI tumour cell line growth inhibition, 48 h
Activity calls are given as the source filed them. Cut-off read from the data, not from the text of the source: active = GI50 up to about 1.1 µM and inactive = higher.
Reported GI50 values for a set of molecules
readout kind: GI50

[[record]]
molecule = "COc1cc(/C=C/C(=O)CC(=O)/C=C/c2ccc(O)c(OC)c2)ccc1O"
study_system = "RXF 393"
result = "3 µM (inactive)"

[[record]]
molecule = "COc1ccc(Nc2nc3ccccc3nc2C(=O)O)cc1OC"
study_system = "RXF 393"
result = "74.1 µM (inactive)"

[[record]]
molecule = "O=C(Nc1ccn(C2CC(O)C(COC(c3ccccc3)(c3ccccc3)c3ccccc3)O2)c(=O)n1)c1ccccc1 (centres undefined)"
study_system = "RXF 393"
result = "2.7 µM (inactive)"

[[record]]
molecule = "CCN(CC)CSc1nc2ccccc2[nH]1"
study_system = "RXF 393"
result = "> 100 µM (inactive)"

[[record]]
molecule = "Cc1c(N2C(=O)/C(=C/c3ccc(Cl)cc3)N=C2c2ccccc2)c(=O)n(-c2ccccc2)n1C"
study_system = "RXF 393"
result = "22.3 µM (inactive)"

[[record]]
molecule = "[O-][S+]1c2ccc(Cl)cc2CC(SSC2Cc3cc(Cl)ccc3[S+]([O-])c3ccccc32)c2ccccc21 (centres undefined)"
study_system = "RXF 393"
result = "> 100 µM (inactive)"

[[record]]
molecule = "Nc1cc(O)c2cc(/N=N/c3ccc(/N=N/c4ccc(/N=N/c5ccc6cc(S(=O)(=O)O)cc(S(=O)(=O)O)c6c5)c5ccccc45)c4cc(S(=O)(=O)O)ccc34)c(S(=O)(=O)O)cc2c1"
study_system = "RXF 393"
result = "> 100 µM (inactive)"

[[record]]
molecule = "Fc1cccc(/C=N/C23CC4CC(CC(C4)C2)C3)c1"
study_system = "RXF 393"
result = "> 100 µM (inactive)"

[[record]]
molecule = "NC(=O)Cn1c(=O)oc2cc(C(=O)CN3CCOCC3)ccc21"
study_system = "RXF 393"
result = "> 100 µM (inactive)"

